Values were extracted from ChEMBL document CHEMBL5724914.

- CONDITION INFO: human gut metagenome, 24 h, 2 µM; further: call rule not given here
OBSERVED PROPERTY: Bacterial Biotransformation

Solved cases below.
- COMPOUND: "Cc1nc(-c2ccc(OCC(C)C)c(C#N)c2)sc1C(=O)O"
  ENDPOINT RESULT: "Compound NOT metabolized"
- COMPOUND: "OC(Cn1cncn1)(Cn1cncn1)c1ccc(F)cc1F"
  ENDPOINT RESULT: "Compound NOT metabolized"
- COMPOUND: "CC(C(=O)O)c1ccc2c(c1)Cc1cccnc1O2 (stereo not given)"
  ENDPOINT RESULT: "Compound metabolized"
- COMPOUND: "CN1CCN(CC/C=C2/c3ccccc3Sc3ccc(S(=O)(=O)N(C)C)cc32)CC1"
  ENDPOINT RESULT: "Compound metabolized"

For the compound shown here, "CN(C)CCC=C1c2ccccc2C=Cc2ccccc21" , give the reported Bacterial Biotransformation.
Compound metabolized

----------
- METHOD SUMMARY: The drug is tested on Z-005 corresponding to metagenome with ENA study accession number: PRJEB37062 and ENA sample accession number: ERS12561805 for biotransformation under anaerobic condition. The drug concentrations were measured over 9 timepoints collected between 0 and 24 hours of incubation by liquid-chromatography-coupled mass spectrometry (LC–MS)
- CONDITION INFO: 2 µM
OBSERVED PROPERTY: Bacterial Biotransformation

Solved cases below.
- COMPOUND: "COc1ccc(CCN(C)CCCC(C#N)(c2ccc(OC)c(OC)c2)C(C)C)cc1OC (centres undefined)"
  ENDPOINT RESULT: "Compound metabolized"
- COMPOUND: "COc1ccccc1N1CCN(CC(O)COc2cccc3ccccc23)CC1 (centres undefined)"
  ENDPOINT RESULT: "Compound NOT metabolized"
- COMPOUND: "CCCc1nc(C(C)(C)O)c(C(=O)OCc2oc(=O)oc2C)n1Cc1ccc(-c2ccccc2-c2nnn[nH]2)cc1"
  ENDPOINT RESULT: "Compound metabolized"
- COMPOUND: "CN1CCN(C2=Nc3cc(Cl)ccc3Nc3ccccc32)CC1"
  ENDPOINT RESULT: "Compound NOT metabolized"
- COMPOUND: "CNS(=O)(=O)Cc1ccc2[nH]cc(CCN(C)C)c2c1.O=C(O)CCC(=O)O [SUMATRIPTAN SUCCINATE]"
  ENDPOINT RESULT: "Compound NOT metabolized"
- COMPOUND: "CC[C@H](C)C(=O)O[C@H]1C[C@@H](C)C=C2C=C[C@H](C)[C@H](CC[C@@H]3C[C@@H](O)CC(=O)O3)[C@H]21"
  ENDPOINT RESULT: "Compound NOT metabolized"
- COMPOUND: "Cc1ccc(S(=O)(=O)NC(=O)NN2CC3CCCC3C2)cc1 (centres undefined) [GLICLAZIDE]"
  ENDPOINT RESULT: "Compound metabolized"
- COMPOUND: "CN(C)C(=O)C(CCN1CCC(O)(c2ccc(Cl)cc2)CC1)(c1ccccc1)c1ccccc1 [LOPERAMIDE]"
  ENDPOINT RESULT: "Compound metabolized"

// next item, Bacterial Biotransformation requested
For the compound shown here, "Nc1c2c(nc3ccccc13)CCCC2" , give the reported Bacterial Biotransformation.
Compound NOT metabolized

----------
- METHOD SUMMARY: The drug is tested on Z-009 corresponding to pig gut metagenome with ENA study accession number: PRJEB37062 and ENA sample accession number: ERS12561809 for biotransformation under anaerobic condition. The drug concentrations were measured over 9 timepoints collected between 0 and 24 hours of incubation by liquid-chromatography-coupled mass spectrometry (LC–MS)
- CONDITION INFO: 2 µM
OBSERVED PROPERTY: Bacterial Biotransformation

Solved cases below.
- MOLECULE: "Cc1ccc(S(=O)(=O)NC(=O)NN2CC3CCCC3C2)cc1 (centres undefined) [GLICLAZIDE]"
  OBSERVED PROPERTY: "Bacterial Biotransformation"
  ENDPOINT RESULT: "Compound metabolized"
- MOLECULE: "CC(C)c1nc(CN(C)C(=O)N[C@H](C(=O)N[C@@H](Cc2ccccc2)C[C@H](O)[C@H](Cc2ccccc2)NC(=O)OCc2cncs2)C(C)C)cs1"
  OBSERVED PROPERTY: "Bacterial Biotransformation"
  ENDPOINT RESULT: "Compound metabolized"
- MOLECULE: "CCCc1nc2c(C)cc(-c3nc4ccccc4n3C)cc2n1Cc1ccc(-c2ccccc2C(=O)O)cc1"
  OBSERVED PROPERTY: "Bacterial Biotransformation"
  ENDPOINT RESULT: "Compound metabolized"
- MOLECULE: "CCCCC1=NC2(CCCC2)C(=O)N1Cc1ccc(-c2ccccc2-c2nnn[nH]2)cc1"
  OBSERVED PROPERTY: "Bacterial Biotransformation"
  ENDPOINT RESULT: "Compound metabolized"
- MOLECULE: "COc1ccccc1N1CCN(CC(O)COc2cccc3ccccc23)CC1 (centres undefined)"
  OBSERVED PROPERTY: "Bacterial Biotransformation"
  ENDPOINT RESULT: "Compound NOT metabolized"
- MOLECULE: "CCc1nc(N)nc(N)c1-c1ccc(Cl)cc1"
  OBSERVED PROPERTY: "Bacterial Biotransformation"
  ENDPOINT RESULT: "Compound NOT metabolized"
- MOLECULE: "CC[C@H](C)C(=O)O[C@H]1C[C@@H](C)C=C2C=C[C@H](C)[C@H](CC[C@@H]3C[C@@H](O)CC(=O)O3)[C@H]21"
  OBSERVED PROPERTY: "Bacterial Biotransformation"
  ENDPOINT RESULT: "Compound NOT metabolized"
- MOLECULE: "O=C(CCCN1CCC(O)(c2ccc(Cl)cc2)CC1)c1ccc(F)cc1"
  OBSERVED PROPERTY: "Bacterial Biotransformation"
  ENDPOINT RESULT: "Compound metabolized"

// next item, Bacterial Biotransformation requested
For the molecule shown here, "C=CCN1CC[C@]23c4c5ccc(O)c4O[C@H]2C(=O)CC[C@@]3(O)[C@H]1C5" , give the reported Bacterial Biotransformation.
Compound NOT metabolized

----------
- CONDITION INFO: human gut metagenome, 24 h, 2 µM
OBSERVED PROPERTY: Bacterial Biotransformation

Solved cases below.
- COMPOUND: "N#Cc1ccc(C(c2ccc(C#N)cc2)n2cncn2)cc1"
  ENDPOINT RESULT: "Compound NOT metabolized"
- COMPOUND: "O=c1n(CCCN2CCN(c3cccc(Cl)c3)CC2)nc2ccccn12"
  ENDPOINT RESULT: "Compound metabolized"
- COMPOUND: "CC[C@@H](CO)NC(=O)[C@@H]1C=C2c3cccc4c3c(cn4C)C[C@H]2N(C)C1.O=C(O)/C=C\\C(=O)O [METHYSERGIDE MALEATE]"
  ENDPOINT RESULT: "Compound NOT metabolized"
- COMPOUND: "CN/C(=N/CCSCc1nc[nH]c1C)NC#N"
  ENDPOINT RESULT: "Compound metabolized"
- COMPOUND: "O=C(O)COCCN1CCN(C(c2ccccc2)c2ccc(Cl)cc2)CC1 (stereo not drawn)"
  ENDPOINT RESULT: "Compound metabolized"
- COMPOUND: "CC(C)NCC(O)c1ccc(NS(C)(=O)=O)cc1 (stereo not drawn)"
  ENDPOINT RESULT: "Compound NOT metabolized"

For the compound shown here, CC(CN(C)C)CN1c2ccccc2CCc2ccccc21.O=C(O)/C=C\C(=O)O (stereo not drawn) [TRIMIPRAMINE MALEATE] , give the reported Bacterial Biotransformation.
Compound NOT metabolized

For the compound shown here, OC(CCN1CCCCC1)(c1ccccc1)C1CCCCC1 (stereo not drawn) , give the reported Bacterial Biotransformation.
Compound metabolized

For the compound shown here, CC(=O)OCC(=O)[C@@]1(O)[C@@H](C)C[C@H]2[C@@H]3CCC4=CC(=O)C=C[C@]4(C)[C@@]3(F)[C@@H](O)C[C@@]21C [BETAMETHASONE ACETATE] , give the reported Bacterial Biotransformation.
Compound metabolized

For the compound shown here, "CCCCC(=O)N(Cc1ccc(-c2ccccc2-c2nnn[nH]2)cc1)[C@H](C(=O)O)C(C)C" , give the reported Bacterial Biotransformation.
Compound metabolized

For the compound shown here, "C[C@@H]1CC[C@H]2[C@@H](C)C(=O)O[C@@H]3O[C@@]4(C)CC[C@@H]1[C@]32OO4" , give the reported Bacterial Biotransformation.
Compound metabolized

For the compound shown here, CN(C)CC(c1ccc(O)cc1)C1(O)CCCCC1.O=C(O)CCC(=O)O (stereo not drawn) [DESVENLAFAXINE SUCCINATE] , give the reported Bacterial Biotransformation.
Compound NOT metabolized

For the compound shown here, "OC(Cn1cncn1)(Cn1cncn1)c1ccc(F)cc1F" , give the reported Bacterial Biotransformation.
Compound metabolized

For the compound shown here, "CCCCC1=NC2(CCCC2)C(=O)N1Cc1ccc(-c2ccccc2-c2nnn[nH]2)cc1" , give the reported Bacterial Biotransformation.
Compound metabolized
